Test: NCI Yeast Anticancer Drug Screen. Data for the rad50 strain (AID 155);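 also: 0% = growth of vehicle-only cultures of the same strain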
Settings: S. cerevisiae rad50 strain growth inhibition; at 50.0 µM; active compounds read high
Experimental: Growth inhibition of yeast strains with defined genetic alterations is measured as a screen for potential anti-cancer activity. Selected strains with alterations in DNA damage repair or cell cycle control were exposed to compounds and growth inhibition was measured relative to vehicle treated controls. The strain used in this assay is rad50
About 79,000 compounds went through this panel and 15% of them were active in at least one assay; those are over-represented in the sample as a whole.
Measured Quantity: growth inhibition (%)
Respond numerically; units are % and should not be typed.

For this compound ( "Cn1c(=O)c2c(nc(CN3CCOCC3)n2C)n(C)c1=O" ), measured growth inhibition is -1.35

Kindly note the recorded growth inhibition for "COc1ccc2c(ccc3nc(C)[nH]c(=O)c32)c1" , which is 5.3

get_value(item= "CC(C)(C)CC(C)(C)c1cc2c(O)c(c1)Cc1cc(C(C)(C)CC(C)(C)C)cc(c1O)Cc1cc(C(C)(C)CC(C)(C)C)cc(c1O)Cc1cc(C(C)(C)CC(C)(C)C)cc(c1O)Cc1cc(C(C)(C)CC(C)(C)C)cc(c1O)Cc1cc(C(C)(C)CC(C)(C)C)cc(c1O)C2" , readout=growth inhibition) returns 7.4

Field growth inhibition (entry "N#CC1CCCCCC1" ) reads 0.8

"CC(=O)N=Cc1c(O)[nH]c2ccccc12" yielded growth inhibition of 36.9

For "Cc1cc(CN(C)C)cc(C(C)C)c1O" the compound record lists growth inhibition as 1.85

The value of growth inhibition measured for the compound "Cc1cc(C(C)C)cc(C(C)C)c1" turned out to be -6.25

growth inhibition reported for this compound COC(=O)C(CC(=O)c1ccc2ccccc2c1)OC (stereo unspecified) : -1.85

// growth inhibition lookup, compound = "COc1cc(-c2ccc(N=C=O)c(OC)c2)ccc1N=C=O" , result: -4

The reported growth inhibition of the compound "Cc1ccc(-n2c(O)c(N=Nc3ccccc3)c(=O)n(-c3ccccc3)c2=S)cc1" was 20.1

Looking up "Cc1ccc(N=C=S)cc1Cl" , I found its growth inhibition recorded as 6.75
